test system: XF498; experiment: NCI tumour cell line growth inhibition, 48 h
Active and inactive are the calls of the source. Cut-off read from the data, not from the text of the source: active = GI50 up to about 1.1 µM and inactive = higher.
Possible outcomes: label 1 for active, label 0 for inactive

| COMPOUND | LABEL_CLASS |
| --- | --- |
| C[C@]12CCCC(=O)C1(O)C[C@H](C(=O)O)CC2 (stereo not given in full) | label 0 |
| CC1=CC[C@H](C)C(C)(C)C1/C=C/C(C)=C/CC[C@@]1(CO)[C@H](CCCO)/C(=C(/C)C=O)CC[C@]1(C)O (stereo not given in full) | label 0 |
| CC(C)=CCC(OC(=O)C=C(C)C)c1cc(O)c2c(c1O)C(=O)C=CC2=O (stereo not given) | label 1 |
| Clc1ccccc1/C=C/c1cscn1 | label 0 |
| CCCCCCCCCc1cc(=O)c2ccc(OCc3ccccc3)cc2o1 | label 0 |

###

system: MCF7; test: NCI tumour cell line growth inhibition, 48 h
The source made the active and inactive calls. Rule as the data show it: active = GI50 up to about 1.1 µM and inactive = higher.
A collection of molecules and their measured GI50
OBSERVABLE: GI50

| MOLECULE | OBSERVABLE | VALUE_REPORTED |
| --- | --- | --- |
| CC1=NN(c2nc(N)nc(C/C(N)=N/O)n2)C(C)(C)C1 | GI50 | > 100 µM (inactive) |
| Oc1ccc(Nc2nc(Cl)c3nc[nH]c3n2)cc1 | GI50 | > 100 µM (inactive) |
| C=C[C@@H]1C(CO)=CCC2[C@H]1CCC1C(C)(C)C(=O)CC[C@]21C (stereo not given in full) | GI50 | > 100 µM (inactive) |
| CCOC(=O)C(NC(=O)c1ccccc1)(N1CCN(c2cc3c(cc2F)c(=O)c(C(=O)O)cn3CC)CC1)C(F)(F)F (stereo not given) | GI50 | 26.6 µM (inactive) |
| O=[N+]([O-])C(/C=C(\Cl)[N+](=O)[O-])=C(Nc1ccccc1)Nc1ccccc1 | GI50 | 0.843 µM (active) |
| CC1(C)C(c2ccccc2)=[N+]([O-])C(C)(C)N1O | GI50 | > 10 µM (inactive) |
| CC#CC(O)(C(=O)OC1CCCN(C)C1)C1=CC=CCC1 (stereo not given) | GI50 | > 100 µM (inactive) |
| NCc1ccc(O)c(O)c1 | GI50 | > 100 µM (inactive) |
| CCOC(=O)C(NC(=O)CC(C)C)(N1CCN(c2cc3c(cc2F)c(=O)c(C(=O)O)cn3C2CC2)CC1)C(F)(F)F (stereo not given) | GI50 | 15.6 µM (inactive) |
| CCOC(=O)C(OP(=O)(OCC)OCC)C(F)(F)F (stereo not given) | GI50 | > 100 µM (inactive) |

###

tested on: RXF 393; assay: NCI tumour cell line growth inhibition, 48 h
Calls of active or inactive are those of the source. Cut-off read from the data, not from the text of the source: active = GI50 up to about 1.1 µM and inactive = higher.
Possible outcomes: active, inactive

| COMPOUND | ASSAY_SYSTEM | LABEL_CLASS |
| --- | --- | --- |
| O=c1c(-c2ccccc2)c(SCCN2CCCCCC2)n(-c2ccccc2)c(=S)n1-c1ccccc1 | RXF 393 | inactive |
| Nc1ccc2c(c1)N(C(=O)CCCC(=O)N1CC(CCl)c3ccc(N)cc31)CC2CCl (centres undefined) | RXF 393 | active |
| Cc1ccc(NC(=O)S(N)(c2ccc(C)cc2)[N+](=O)[O-])cc1 (centres undefined) | RXF 393 | inactive |
| Cc1nc2sc3ccccc3n2c(=O)c1/N=N/c1ccc(Cl)cc1 | RXF 393 | inactive |
| COCOc1ccc(C2(O)Oc3cc(OCOC)ccc3C2C)c(O)c1 (centres undefined) | RXF 393 | inactive |
| Cc1ccc(/C=C2\CCCC(CN(C)C)C2=O)cc1 (centres undefined) | RXF 393 | inactive |
| CC(C)C(C(=O)O)N1C(=O)c2ccccc2C1=O (centres undefined) | RXF 393 | inactive |
| CC1OC(OC2C(OC(=O)[C@@H]3CC(C)(C)C[C@@H]4C5=CC[C@@H]6[C@@]7(C)C[C@H](O)[C@H](OC8OC(CO)C(O)C(O)C8O)[C@@](C)(CO)C7[C@H](O)C[C@@]6(C)[C@]5(C)C[C@@H](O)[C@H]43)OCC(O)C2O)C(O)C(O)C1O (some centres undefined) | RXF 393 | inactive |
| C=CCCCN(C(=O)c1ccccc1)c1ccc(C(=O)OC)o1 | RXF 393 | inactive |
| CCOC(=S)SCC(=O)O | RXF 393 | inactive |
| COc1c(C)c(C/C=C(\C)CCCCO)c(OC)c2ccccc12 | RXF 393 | inactive |
| CC1=C2C(=O)c3ccccc3C2=C(C)S(=O)(=O)O1 | RXF 393 | inactive |
| CCN(CC)CCC(=O)OC1C(C)=CC(C)C(=O)CC(C(C)CC2CCC(O)C(OC)C2)OC(=O)C2CCCCN2C(=O)C(=O)[C@@]2(O)OC(CCC2C)CC(OC)\C(C)=C/C=C/C=C/C(C)CC(C)C(=O)C1OC (some centres undefined) | RXF 393 | active |
| O=C1Nc2c(Cl)cc(Cl)cc2/C1=N/N=C/c1ccco1 | RXF 393 | inactive |
| CCOC(=O)C(C(=O)OCC)c1cc(-c2cc3ccccc3o2)oc(=O)c1C#N | RXF 393 | inactive |
| CC(C)C(CC(=O)OCC(CO)OC(=O)CC(C(C)C)C(C)C)C(C)C (centres undefined) | RXF 393 | inactive |
| C=CCC(C(=O)O)c1ccccc1 (centres undefined) | RXF 393 | inactive |
| O=C(N/C(=C\c1ccc([N+](=O)[O-])cc1)c1nc2c(O)nc(S)nc2[nH]1)c1ccccc1 | RXF 393 | inactive |
| CCOC(=O)C(NC(=O)c1ccccc1)(N1CCN(c2cc3c(cc2F)c(=O)c(C(=O)O)cn3CC)CC1)C(F)(F)F (centres undefined) | RXF 393 | inactive |
